Property: growth; scope: individual compounds
test system: HL-60(TB) leukemia; assay: NCI-60 one-dose screen, 48 h (100 = growth as untreated, 0 = no growth, -100 = all killed); settings: 10 µM
The panel holds about 83,000 compounds, 20% with a hit somewhere; the sample as a whole holds those more often.
Numbers only here, please. The scale is %.

Value of growth reported for the compound O=C(O)c1sccc1O is 62.6

Value of growth reported for the compound O=C(/C=C/c1cccc(Oc2ccc(Cl)cc2)c1)c1ccccc1 is 73.9

Value of growth reported for the compound CN(Cc1cnc2nc(N)nc(N)c2n1)c1ccc(C(=O)N[C@@H](CCC(=O)O)C(=O)O)cc1 is 24.1

Value of growth reported for the compound S=c1nc[nH]c2nc[nH]c12 is 13.8
